Molecular target: T1, human programmed cell death protein 1 (hPD-1) C93S (aa 24-167) (Homo sapiens, UniProt Q15116, C93S)
T1 construct: made as a fusion with a TEV site and human Fc; the Fc was cut off with TEV protease; source: Expi293F, purified (Protein A, TEV cleavage of Fc, SEC; monomer fractions); not shown: Fc (human), C-terminal, cleaved
T1 sequence (Q15116 24-167 C93S): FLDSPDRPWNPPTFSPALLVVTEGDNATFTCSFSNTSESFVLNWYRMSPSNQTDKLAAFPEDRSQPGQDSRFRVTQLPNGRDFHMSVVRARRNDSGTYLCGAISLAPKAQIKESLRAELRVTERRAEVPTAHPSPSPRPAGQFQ
Assay: SPR; Carterra LSA; Fab from the ammonium sulfate precipitate of the culture supernatant immobilised on a NiHC200M chip; hPD-1 (1-1024 nM) or mPD-1-Fc (4-1024 nM) as analyte, fourfold dilution series, no regeneration; HBS-EP pH 7.4, 25 °C; medians over the spots of a construct, KD = koff/kon
Details: one partner purified
Reported koff by item:

Below are worked cases with known answers.
Indicate the recorded koff value for this binder: toripalimab Fab L.S32Y (Fab, V domains shown, as the heavy chain of Sm3; light chain of Sm3 with this change; numbers count from the chain's first residue; source: Brevibacillus, culture supernatant (ammonium sulfate precipitate); not shown: 6xHis, C-terminal, kept; 6xHN, C-terminal, kept) VH: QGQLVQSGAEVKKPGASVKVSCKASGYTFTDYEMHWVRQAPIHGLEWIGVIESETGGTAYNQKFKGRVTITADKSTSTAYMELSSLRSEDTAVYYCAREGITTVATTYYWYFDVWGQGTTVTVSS VL: DVVMTQSPLSLPVTLGQPASISCRSSQSIVHYNGNTYLEWYLQKPGQSPQLLIYKVSNRFSGVPDRFSGSGSGTDFTLKISRVEAEDVGVYYCFQGSHVPLTFGQGTKLEIK
< 1e-05 s⁻¹

Read off the recorded koff for toripalimab Fab L.S25A (Fab, V domains shown, as the heavy chain of Sm3; light chain of Sm3 with this change; numbers count from the chain's first residue; source: Brevibacillus, culture supernatant (ammonium sulfate precipitate); not shown: 6xHis, C-terminal, kept; 6xHN, C-terminal, kept) VH: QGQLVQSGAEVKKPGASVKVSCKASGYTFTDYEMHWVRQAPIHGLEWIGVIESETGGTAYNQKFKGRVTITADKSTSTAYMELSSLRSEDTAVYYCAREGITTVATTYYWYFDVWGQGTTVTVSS VL: DVVMTQSPLSLPVTLGQPASISCRASQSIVHSNGNTYLEWYLQKPGQSPQLLIYKVSNRFSGVPDRFSGSGSGTDFTLKISRVEAEDVGVYYCFQGSHVPLTFGQGTKLEIK
< 1e-05 s⁻¹

Input toripalimab Fab, wild type (Fab, V domains shown, toripalimab Fab heavy chain; toripalimab stands in PDB 6JBT; toripalimab Fab light chain; also called WT; source: Brevibacillus, culture supernatant (ammonium sulfate precipitate); not shown: 6xHis, C-terminal, kept; 6xHN, C-terminal, kept) VH: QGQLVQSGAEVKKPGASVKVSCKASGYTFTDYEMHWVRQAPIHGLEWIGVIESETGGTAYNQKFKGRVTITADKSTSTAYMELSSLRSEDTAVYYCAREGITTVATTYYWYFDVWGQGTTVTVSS VL: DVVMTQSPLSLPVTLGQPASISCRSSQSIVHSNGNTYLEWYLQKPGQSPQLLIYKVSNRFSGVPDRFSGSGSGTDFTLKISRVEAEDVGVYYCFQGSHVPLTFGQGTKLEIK , output reported koff.
< 1e-05 s⁻¹

Continuing:
Recall and state the measured koff for toripalimab Fab H.T106A (Fab, V domains shown, heavy chain of Sm3 with this change; numbers count from the chain's first residue; as the light chain of Sm3; source: Brevibacillus, culture supernatant (ammonium sulfate precipitate); not shown: 6xHis, C-terminal, kept; 6xHN, C-terminal, kept) VH: QGQLVQSGAEVKKPGASVKVSCKASGYTFTDYEMHWVRQAPIHGLEWIGVIESETGGTAYNQKFKGRVTITADKSTSTAYMELSSLRSEDTAVYYCAREGITTVAATYYWYFDVWGQGTTVTVSS VL: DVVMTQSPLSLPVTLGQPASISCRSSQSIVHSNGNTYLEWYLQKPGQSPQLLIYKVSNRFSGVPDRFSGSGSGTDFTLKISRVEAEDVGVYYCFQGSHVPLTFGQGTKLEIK .
1.56e-05 s⁻¹

Please report the measured koff for toripalimab Fab L.N35Y (Fab, V domains shown, as the heavy chain of Sm3; light chain of Sm3 with this change; numbers count from the chain's first residue; source: Brevibacillus, culture supernatant (ammonium sulfate precipitate); not shown: 6xHis, C-terminal, kept; 6xHN, C-terminal, kept) VH: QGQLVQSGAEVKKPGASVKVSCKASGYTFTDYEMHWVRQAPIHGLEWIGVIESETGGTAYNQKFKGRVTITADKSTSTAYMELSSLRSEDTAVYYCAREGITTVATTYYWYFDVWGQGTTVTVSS VL: DVVMTQSPLSLPVTLGQPASISCRSSQSIVHSNGYTYLEWYLQKPGQSPQLLIYKVSNRFSGVPDRFSGSGSGTDFTLKISRVEAEDVGVYYCFQGSHVPLTFGQGTKLEIK
< 1e-05 s⁻¹

Indicate the recorded koff value for this binder: toripalimab Fab H.E52A (Fab, V domains shown, heavy chain of Sm3 with this change; numbers count from the chain's first residue; as the light chain of Sm3; source: Brevibacillus, culture supernatant (ammonium sulfate precipitate); not shown: 6xHis, C-terminal, kept; 6xHN, C-terminal, kept) VH: QGQLVQSGAEVKKPGASVKVSCKASGYTFTDYEMHWVRQAPIHGLEWIGVIASETGGTAYNQKFKGRVTITADKSTSTAYMELSSLRSEDTAVYYCAREGITTVATTYYWYFDVWGQGTTVTVSS VL: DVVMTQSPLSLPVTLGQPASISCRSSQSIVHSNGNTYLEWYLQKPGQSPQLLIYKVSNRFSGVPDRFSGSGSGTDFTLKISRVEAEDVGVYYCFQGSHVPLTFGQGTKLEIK
0.000844 s⁻¹

Please give the documented koff of toripalimab Fab L.F60A (Fab, V domains shown, as the heavy chain of Sm3; light chain of Sm3 with this change; numbers count from the chain's first residue; source: Brevibacillus, culture supernatant (ammonium sulfate precipitate); not shown: 6xHis, C-terminal, kept; 6xHN, C-terminal, kept) VH: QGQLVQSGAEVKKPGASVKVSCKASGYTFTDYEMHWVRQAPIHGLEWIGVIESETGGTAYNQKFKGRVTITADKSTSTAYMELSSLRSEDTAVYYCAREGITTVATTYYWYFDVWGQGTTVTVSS VL: DVVMTQSPLSLPVTLGQPASISCRSSQSIVHSNGNTYLEWYLQKPGQSPQLLIYKVSNRASGVPDRFSGSGSGTDFTLKISRVEAEDVGVYYCFQGSHVPLTFGQGTKLEIK
< 1e-05 s⁻¹

Please give the documented koff of toripalimab Fab H.N61A (Fab, V domains shown, heavy chain of Sm3 with this change; numbers count from the chain's first residue; as the light chain of Sm3; source: Brevibacillus, culture supernatant (ammonium sulfate precipitate); not shown: 6xHis, C-terminal, kept; 6xHN, C-terminal, kept) VH: QGQLVQSGAEVKKPGASVKVSCKASGYTFTDYEMHWVRQAPIHGLEWIGVIESETGGTAYAQKFKGRVTITADKSTSTAYMELSSLRSEDTAVYYCAREGITTVATTYYWYFDVWGQGTTVTVSS VL: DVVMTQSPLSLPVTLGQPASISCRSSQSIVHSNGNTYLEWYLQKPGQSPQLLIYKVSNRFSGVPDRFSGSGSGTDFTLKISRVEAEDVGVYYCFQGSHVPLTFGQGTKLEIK
< 1e-05 s⁻¹

For the binder toripalimab Fab L.V56Y (Fab, V domains shown, as the heavy chain of Sm3; light chain of Sm3 with this change; numbers count from the chain's first residue; source: Brevibacillus, culture supernatant (ammonium sulfate precipitate); not shown: 6xHis, C-terminal, kept; 6xHN, C-terminal, kept) VH: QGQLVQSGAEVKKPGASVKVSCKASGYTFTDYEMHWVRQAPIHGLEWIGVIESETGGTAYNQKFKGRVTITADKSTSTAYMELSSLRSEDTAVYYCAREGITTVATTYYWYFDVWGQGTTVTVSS VL: DVVMTQSPLSLPVTLGQPASISCRSSQSIVHSNGNTYLEWYLQKPGQSPQLLIYKYSNRFSGVPDRFSGSGSGTDFTLKISRVEAEDVGVYYCFQGSHVPLTFGQGTKLEIK , give its reported koff.
< 1e-05 s⁻¹

Give a short answer stating reported koff for toripalimab Fab H.G56A (Fab, V domains shown, heavy chain of Sm3 with this change; numbers count from the chain's first residue; as the light chain of Sm3; source: Brevibacillus, culture supernatant (ammonium sulfate precipitate); not shown: 6xHis, C-terminal, kept; 6xHN, C-terminal, kept) VH: QGQLVQSGAEVKKPGASVKVSCKASGYTFTDYEMHWVRQAPIHGLEWIGVIESETAGTAYNQKFKGRVTITADKSTSTAYMELSSLRSEDTAVYYCAREGITTVATTYYWYFDVWGQGTTVTVSS VL: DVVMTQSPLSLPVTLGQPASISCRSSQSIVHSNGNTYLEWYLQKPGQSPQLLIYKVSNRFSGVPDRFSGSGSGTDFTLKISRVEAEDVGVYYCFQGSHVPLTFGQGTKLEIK .
< 1e-05 s⁻¹
